All values here come from patent US20250163016A1.

- METHOD NOTES: Pharmacokinetics of oral and intravenous administration of rats
- Type: in vivo
- APPLIED CONDITIONS: male, rat, plasma, iv; SD rats, i.v. 5.0 mg/kg, 5% DMSO+10% Solutol+85% Saline
AUC(0-t) reference
Kindly answer with a numeric value in ng·h/mL, unit omitted.

| COMPOUND | UNITS | AUC(0-t) |
| --- | --- | --- |
| CC(C)(O)Cn1ncc2cc(-c3c(C#N)cc(N4CCC(N)CC4)nc3-c3ccc(C#N)c(F)c3)c(F)cc21 | ng·h/mL | 1490 |

Name the reported AUC(0-t) value associated with the compound COc1ccc(-c2c(-c3ccc(C#N)c(F)c3)nc(N3CCC(N)CC3)n(C)c2=O)cc1F [CC-90011, reference compound]
906
